Cited source: PubChem BioAssay (NCATS)

Tested on: CASKI
METHOD SUMMARY: Primary qHTS to identify gynecologic anti-cancer compounds using libraries of approved drugs and bioactive compounds (AID 1345084); also: nearly all actives have a fitted effect of over 55% in size
TEST SETTINGS: Gynecologic cancer cell panel viability, ATPlite luminescence, 48 h; series mostly up to 57.5 µM
Results filed as inconclusive are left out. Activity calls are given as the source filed them. Calls follow the shape of the dose curve; as a rule, active = well fitted cell-killing curve with a large enough effect; inconclusive = small, poorly fitted or top-dose-only effect, or effect the other way; inactive = flat fitted curve, though single readings scatter.
Reply using exactly one outcome from active, inactive

-- ask Look up the recorded call for "C#CCN(Cc1cc2c(=O)[nH]c(C)nc2cc1Br)c1ccc(C(=O)NCc2cccnc2)cc1" in this test.
-- reply active

-- ask Look up the recorded call for C=C(C)C(=O)O[C@H]1C[C@@](C)(O)C(=O)CC(O)/C(C)=C\[C@H]2OC(=O)C(=C)[C@H]12 (stereo partly drawn) in this test.
-- reply inactive

-- ask Look up the recorded call for O=S(=O)(NC1CCC(c2cc(F)ccc2F)(S(=O)(=O)c2ccc(Cl)cc2)CC1)C(F)(F)F (stereo not drawn) in this test.
-- reply inactive

-- ask Look up the recorded call for "C=C1C[C@]23C[C@H]1CC[C@H]2[C@]1(C)CCC[C@@](C)(C(=O)O)[C@H]1[C@@H]3C(=O)O" in this test.
-- reply inactive

-- ask Look up the recorded call for C=C(C)C1CCC(C)C12CC(O)C1(C)OC1C2OC(=O)C(N)CCC(=O)O (stereo not drawn) in this test.
-- reply inactive

-- ask Look up the recorded call for CC1CCC2(OC1)OC1CC3C4CC=C5CC(O)CC(O[C@@H]6OC[C@@H](O)[C@H](O)[C@H]6O)C5(C)C4CCC3(C)C1(O)C2C (stereo partly drawn) in this test.
-- reply inactive

-- ask Look up the recorded call for Cc1c2cc(c(C(=O)O)c1C)OC1OC(C(O)C(O)C1O)C(O)C(O)C1OC(O2)C(O)C(O)C1O (stereo not drawn) in this test.
-- reply inactive

-- ask Look up the recorded call for NC(=O)C(CCC(F)(F)F)N(Cc1ccc(-c2ncon2)cc1F)S(=O)(=O)c1ccc(Cl)cc1 (stereo not drawn) in this test.
-- reply inactive
